# Tested on: T-47D breast
# method: NCI-60 one-dose screen, 48 h
# condition: 10 µM
This is part of a sample that, as a whole, favours compounds with a hit. Of some 83,000 tested, about 20% had one in any assay. The source made the active and inactive calls. How the source made its calls: active means growth percent below 10; inactive means the rest.
Return exactly one item of active, inactive

Task: Just curious, what result did C#C[C@]1(O)CC[C@H]2[C@@H]3CC[C@H]4CC(F)(F)CC[C@]4(C)[C@H]3CC[C@@]21C get here?
Result: inactive

Task: Just curious, what result did CCn1nc(-c2ccc(C(=O)OC)cc2)nc2c(=O)n(C)c(=O)nc1-2 get here?
Result: inactive

Task: Just curious, what result did COc1ccc(-c2[nH]ncc2/C=C/c2cc(C(F)(F)F)[nH]c(=O)n2)cc1 get here?
Result: inactive

Task: Just curious, what result did O=[N+]([O-])C1CC2C=CC1C2 (centres undefined) get here?
Result: inactive

Task: Just curious, what result did CC(=O)Nc1ccc(Sc2ccc(NC(C)=O)cc2)cc1 get here?
Result: inactive

Task: Just curious, what result did [O-]c1c[n+](-c2ccc(Cl)cc2)no1 get here?
Result: inactive

Task: Just curious, what result did O=C(O)CNS(=O)(=O)c1ccc(OCCOc2ccc(S(=O)(=O)NCC(=O)O)cc2)cc1 get here?
Result: inactive

Task: Just curious, what result did O=NN(CC(=O)N/N=C/C=C\c1ccccc1)CC(=O)N/N=C/C=C/c1ccccc1 get here?
Result: inactive

Task: Just curious, what result did O=C(NC1CCCC1)c1ccc(N2CCC(NCc3cccc(C(F)(F)F)c3)CC2)cc1 get here?
Result: inactive

Task: Just curious, what result did CC1=CSC2=NC(c3ccc(Cl)c(Cl)c3)=CC(c3ccc(Cl)cc3)N12 (centres undefined) get here?
Result: inactive

Task: Just curious, what result did CCOC(=O)c1c(Cl)c2c(n1Cc1cccc(OC)c1)-c1oncc1CC2 get here?
Result: inactive

Task: Just curious, what result did COc1cc(-c2cc(/C=C/C(C)=O)[nH]n2)cc(OC)c1OC get here?
Result: inactive

Task: Just curious, what result did CC1(C)CNC(=O)N1 get here?
Result: inactive

Task: Just curious, what result did C=CCc1cc(Nc2c3ccc(Cl)cc3nc3ccc(OC)cc23)cc(CN(CC)CC)c1O get here?
Result: active

Task: Just curious, what result did C=CCn1c(C)nc2cc(Nc3nc(Nc4ccc5nc(C)n(CC=C)c5c4)c4ccccc4n3)ccc21 get here?
Result: active

Task: Just curious, what result did COc1ccc(-c2nnc(COc3ccc(NC(=O)Nc4ccccc4)cc3F)o2)cc1 get here?
Result: inactive

Task: Just curious, what result did CN(C)c1ccc2c(c1)OC(N)=C(C#N)C2c1ccc2c(c1)CCO2 (centres undefined) get here?
Result: inactive

Task: Just curious, what result did CC(C)c1[nH]nc2c(NCc3ccc(-c4ccccn4)cc3)nc(SCCN(C)C)nc12 get here?
Result: active

Task: Just curious, what result did COc1ccc(-n2nnc3c(sc4ccccc43)c2=O)cc1 get here?
Result: inactive

Task: Just curious, what result did Cc1cc(Nc2cccc(F)c2)nc(NCc2ccccc2)n1 get here?
Result: inactive

Task: Just curious, what result did Cc1cc2cc3c(=O)[nH]c(=O)cc-3n(CC(O)C(O)C(O)CO)c2cc1C (centres undefined) get here?
Result: inactive

Task: Just curious, what result did N#Cc1c(-c2ccccc2)nc(SCC(=O)N2CCOCC2)[nH]c1=O get here?
Result: inactive

Task: Just curious, what result did O=C(O)c1ccccc1C(=O)c1cccc2c(F)cccc12 get here?
Result: inactive

Task: Just curious, what result did CCCCc1ccc(NC(=O)N(CCCl)N=O)cc1 get here?
Result: inactive

Task: Just curious, what result did CC(=O)c1c(O)cc2c3c1OC(C)(C)C1CCC(C)(CC31)O2 (centres undefined) get here?
Result: inactive

Task: Just curious, what result did CC(C)C[C@H](NC(=O)Cn1ccc2ccccc2c1=O)B(O)O get here?
Result: inactive

Task: Just curious, what result did COc1cc(CSc2nc3ccc(Cl)cc3c(=O)n2Cc2ccccc2)cc(OC)c1OC get here?
Result: inactive

Task: Just curious, what result did O=C(CCl)N1c2ccccc2Sc2ccc3ccccc3c21 get here?
Result: active

Task: Just curious, what result did CCCCC(=O)N(c1ccc(Nc2c3ccccc3nc3cc([N+](=O)[O-])ccc23)cc1)S(C)(=O)=O get here?
Result: inactive

Task: Just curious, what result did CCc1c(C(=O)NCc2c(O)ccc3cccc(O)c23)[nH]c(C)c1C(C)=O get here?
Result: active

Task: Just curious, what result did COc1ccc(-c2nc(-c3nc4ccc(C)cc4[nH]3)c3ccccn23)cc1 get here?
Result: inactive

Task: Just curious, what result did O=[N+]([O-])c1ccc2c(c1)Cc1cc(I)ccc1-2 get here?
Result: inactive

Task: Just curious, what result did COc1ccc(-c2cc(/C=C3\C(=O)Nc4cc(Cl)ccc43)[nH]n2)cc1OC get here?
Result: inactive

Task: Just curious, what result did CCNC1(NC#N)CCCCC1 get here?
Result: inactive

Task: Just curious, what result did Cc1ccc(S(=O)(=O)Oc2ccccc2-c2ccccc2)cc1 get here?
Result: inactive

Task: Just curious, what result did FC(F)(F)c1ccc(-c2cnc(Br)nc2NC2CCCCCC2)cc1 get here?
Result: inactive

Task: Just curious, what result did CCc1ccc(-c2nnc(COc3ccc(-c4nc5ccccc5[nH]4)cc3OC)o2)cc1 get here?
Result: inactive

Task: Just curious, what result did CCn1nc(-c2ccccn2)c2cccnc2c1=S get here?
Result: inactive

Task: Just curious, what result did CC(=O)N(O)c1ccc(/C=C/c2ccccc2)cc1 get here?
Result: inactive

Task: Just curious, what result did CCCCCCCCCCCC(c1ccccc1)N(C)C (centres undefined) get here?
Result: inactive

Task: Just curious, what result did CC(C)C[C@H](NC(=O)Cn1ccc(Nc2ccccc2)cc1=O)B(O)O get here?
Result: active

Task: Just curious, what result did COc1ccc(/C=C(\c2cc(OC)c(OC)c(OC)c2)c2nnc(-c3cccs3)o2)cc1 get here?
Result: inactive

Task: Just curious, what result did N=C(N)c1ccc(-c2ccc(-c3ccccc3)s2)cc1F get here?
Result: active

Task: Just curious, what result did O=C(Cn1ccc(=O)[nH]c1=O)c1ccc([N+](=O)[O-])o1 get here?
Result: inactive
